# assayed target: mASH1L PHD domain (residue 2573–2624) (mouse) (UniProt Q99MY8)
# assay text: ITC; MicroCal iTC200, 25°C, 1×PBS pH 7.2, 100 μM ZnCl2; 100 µM PHD or tandem Bromo-PHD in the cell, titrated with 3 mM peptide (31 injections of 1.2 μl); one set of sites model
pKd: −log10 of the molar value. Primed or numbered codes have the meaning given here. Where no end group is shown, it is not given here. [ ]: non-standard residue; d: D form. Me3″ = trimethylation (trimethyl-lysine); Lys(Me2) = CN(C)CCCC[C@H](N)C(=O)O
Below is a list of entries, each paired with its recorded pKd value.
reported endpoint: pKd

[[record]]
binder = "ART[Lys(Me2)]QTARKSTGGKA (also called H3K4me2; H3K4me2 peptide (1–15); source: synthetic peptide (MIMOYOPES, Wuxi, China)) [histone H3 (1–15) peptide, dimethylated on lysine 4]"
reported_endpoint = "pKd"
readout_relation = "="
measured = 4.41

[[record]]
binder = "ARTK(Me)QTARKSTGGKA (peptide, UniProt P68431 2-16, looked up, histone H3, residues 1-15; also called H3K4me1; H3K4me; source: synthetic peptide (MIMOYOPES, Wuxi, China)) [histone H3 (1–15) peptide, monomethylated on lysine 4]"
reported_endpoint = "pKd"
readout_relation = "="
measured = 4.12

[[record]]
binder = "ARTKQTARKSTGGKA (peptide, UniProt P68431 2-16, looked up, histone H3, residues 1-15; also called H3K4; H3K4me0; source: synthetic peptide (MIMOYOPES, Wuxi, China)) [histone H3 (1–15) peptide, unmethylated on lysine 4]"
reported_endpoint = "pKd"
readout_relation = "<"
measured = 3.52

[[record]]
binder = "ARTK(Me3″)QTARKSTGGKA (peptide, UniProt P68431 2-16, looked up, histone H3, residues 1-15; also called H3K4me3; source: synthetic peptide (MIMOYOPES, Wuxi, China)) [histone H3 (1–15) peptide, trimethylated on lysine 4]"
reported_endpoint = "pKd"
readout_relation = "="
measured = 4.19

